Origin of the recorded values: paper PMC2909581

# PROTOCOL: Sorafenib and N-oxide metabolite plasma pharmacokinetics
# Assay type: in vivo, human
# ASSAY_CONDITIONS: Maximum; Day −1, sorafenib given alone
OBSERVATION_TYPE: Cmax (µM)
Express it in µM; write the number only.

| MOLECULE | U | Cmax |
| --- | --- | --- |
| CNC(=O)c1cc(Oc2ccc(NC(=O)Nc3ccc(Cl)c(C(F)(F)F)c3)cc2)cc[n+]1[O-] [N-oxide sorafenib] | µM | 6.4 |

Exercise: Output measured Cmax for this item: CNC(=O)c1cc(Oc2ccc(NC(=O)Nc3ccc(Cl)c(C(F)(F)F)c3)cc2)ccn1
Key: 22.5

###

# PROTOCOL: Sorafenib and N-oxide metabolite plasma pharmacokinetics
# Format: in vivo, human
# ASSAY_CONDITIONS: Mean; Day −1, sorafenib given alone, steady-state, eleven patients
OBSERVATION_TYPE: Cmax (nM)
Express it in nM; write the number only.

Exercise: Output measured Cmax for this item: CNC(=O)c1cc(Oc2ccc(NC(=O)Nc3ccc(Cl)c(C(F)(F)F)c3)cc2)cc[n+]1[O-] [N-oxide sorafenib]
Key: 2000

###

# PROTOCOL: Sorafenib and N-oxide metabolite plasma pharmacokinetics
# Assay type: in vivo, human
# ASSAY_CONDITIONS: Minimum; Day −1, sorafenib given alone
Below, each entry is listed with its recorded Cmax.
Express it in µM; write the number only.

| COMPOUND | Cmax [µM] |
| --- | --- |
| CNC(=O)c1cc(Oc2ccc(NC(=O)Nc3ccc(Cl)c(C(F)(F)F)c3)cc2)cc[n+]1[O-] [N-oxide sorafenib] | 0.5 |

Now take the following compound into account.
Exercise: Output measured Cmax for this item: CNC(=O)c1cc(Oc2ccc(NC(=O)Nc3ccc(Cl)c(C(F)(F)F)c3)cc2)ccn1
Key: 5.8

###

# PROTOCOL: clinical
# Type: in vivo, human
# ASSAY_CONDITIONS: human, plasma, iv
OBSERVATION_TYPE: half-life
Please answer in the form of a number followed by its unit of measurement.

Exercise: Output measured half-life for this item: C=CCNC1=C2C[C@@H](C)C[C@H](OC)[C@H](O)[C@@H](C)/C=C(\C)[C@H](OC(N)=O)[C@@H](OC)/C=C\C=C(/C)C(=O)NC(=CC1=O)C2=O [tanespimycin, 17-demethoxy-allylaminogeldanamycin]
Key: 3.6 h

###

# PROTOCOL: Sorafenib and N-oxide metabolite plasma pharmacokinetics
# Assay type: in vivo, human
# ASSAY_CONDITIONS: Mean; Day 1, in combination with tanespimycin, steady-state, eleven patients
OBSERVATION_TYPE: Cmax (µM)
Express it in µM; write the number only.

Exercise: Output measured Cmax for this item: CNC(=O)c1cc(Oc2ccc(NC(=O)Nc3ccc(Cl)c(C(F)(F)F)c3)cc2)cc[n+]1[O-] [N-oxide sorafenib]
Key: 2.6

###

# PROTOCOL: Sorafenib and N-oxide metabolite plasma pharmacokinetics
# Format: in vivo, human
# ASSAY_CONDITIONS: human, plasma, po, 400 mg
OBSERVATION_TYPE: Tmax

Exercise: Output measured Tmax for this item: CNC(=O)c1cc(Oc2ccc(NC(=O)Nc3ccc(Cl)c(C(F)(F)F)c3)cc2)ccn1
Key: 1 to 10 h
